- Test system: MDA-MB-468
- assay_details: Cytotoxicity against human MDA-MB-468 cells after 2 days by sulforhodamine B assay
- Assay type: functional
- conditions: MDA-MB-468, 48 h
endpoint: LC50 (µM)
Provide only the numeric value, understood in µM.

Ask | Entry `CC/C(=C(/c1ccc(OCCN(C)C)cc1)c1ccc(OC(=O)CCC(=O)C2=C(C)/C(=C/c3[nH]c(-c4ccc[nH]4)cc3OC)N=C2C)cc1)c1ccccc1` : reported LC50 = ?
Reply | 61.3

Ask | Report LC50 for `CCC(=C(c1ccc(OCCN(C)C)cc1)c1ccc(OC(=O)CCCCC(=O)C2=C(C)/C(=C/c3[nH]c(-c4ccc[nH]4)cc3OC)N=C2C)cc1)c1ccccc1` please.
Reply | 41.7

---

Would you mind telling me the reported TGI of each entry?
- Test system: COLO 205
- assay_details: Cytotoxicity against human COLO205 cells after 2 days by sulforhodamine B assay
- Type: functional
- conditions: COLO 205, 48 h
Answer format: numeric, µM implied, no suffix.

Ask | TGI lookup needed for `CC/C(=C(/c1ccc(OCCN(C)C)cc1)c1ccc(OC(=O)CCC(=O)C2=C(C)/C(=C/c3[nH]c(-c4ccc[nH]4)cc3OC)N=C2C)cc1)c1ccccc1` , thanks.
Reply | 7.26

Ask | What TGI value was documented for this molecule, `CCC(=C(c1ccc(OCCN(C)C)cc1)c1ccc(OC(=O)CCCCC(=O)C2=C(C)/C(=C/c3[nH]c(-c4ccc[nH]4)cc3OC)N=C2C)cc1)c1ccccc1` ?
Reply | 22.9

Ask | # lookup: TGI of `CC/C(=C(/c1ccc(OCCN(C)C)cc1)c1ccc(OC(=O)CCCCCCCCC(=O)C2=C(C)/C(=C/c3[nH]c(-c4ccc[nH]4)cc3OC)N=C2C)cc1)c1ccccc1`
Reply | 77.6

---

- System: OVCAR-3
- assay_details: Cytotoxicity against human OVCAR3 cells after 2 days by sulforhodamine B assay
- Format: functional
- conditions: OVCAR-3, 48 h
endpoint: TGI (µM)
Your answer should be a plain number; it is taken to be in µM.

Ask | Sample `CC/C(=C(/c1ccc(OCCN(C)C)cc1)c1ccc(OC(=O)CCC(=O)C2=C(C)/C(=C/c3[nH]c(-c4ccc[nH]4)cc3OC)N=C2C)cc1)c1ccccc1` — what was its TGI?
Reply | 10.6

Ask | Param item = `CCC(=C(c1ccc(OCCN(C)C)cc1)c1ccc(OC(=O)CCCCC(=O)C2=C(C)/C(=C/c3[nH]c(-c4ccc[nH]4)cc3OC)N=C2C)cc1)c1ccccc1` ; retrieve measured TGI.
Reply | 26.9

---

Assignment: determine reported TGI for the given compounds.
- System: CAKI-1
- assay_details: Cytotoxicity against human CAKI-1 cells after 2 days by sulforhodamine B assay
- Type: functional
- conditions: CAKI-1, 48 h
Supply the numeric figure in µM, leaving out any unit text.

Ask | Tell me the measured TGI of `CCC(=C(c1ccc(OCCN(C)C)cc1)c1ccc(OC(=O)CCCCC(=O)C2=C(C)/C(=C/c3[nH]c(-c4ccc[nH]4)cc3OC)N=C2C)cc1)c1ccccc1` , please.
Reply | 36.3

Ask | Reported TGI for `CC/C(=C(/c1ccc(OCCN(C)C)cc1)c1ccc(OC(=O)CCC(=O)C2=C(C)/C(=C/c3[nH]c(-c4ccc[nH]4)cc3OC)N=C2C)cc1)c1ccccc1` : what is it?
Reply | 16.1
